Test system: GRK1
Conditions: concentration: 1 μM, replicates: in singlicate; n = 1;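 further: KINOMEscan kinase panel screen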
readout_kind: %Inh (%)

O=C(NCCCN1CCCC1=O)c1cnc(NCc2cc(Cl)ccc2Cl)nc1NC1CCNCC1 :: 33
CCCc1ccc(S(=O)(=O)NC2CCN(c3ccnc(Nc4ccc(OC)cc4)n3)C2)cc1 (stereo not drawn) [GSK1379737] :: 0
CNc1nccc(-c2c(-c3ccc(F)cc3)ncn2C2CCN(C)CC2)n1 [SB-222903] :: 0
COC(=O)c1cccc(NC(=O)NCCNc2ccnc(Nc3ccc(F)cc3)n2)c1 [GSK1379883] :: 0
CNc1nccc(-c2c(-c3ccc(F)cc3)ncn2CCCN2CCOCC2)n1 [SB-222516] :: 22
CN1c2ccc(-c3ccc(C(=O)NCCO)cc3)cc2-c2[nH]ncc2S1(=O)=O :: 4
C[C@@H]1CCN(C(=O)CO)C[C@@H]1N(C)c1ncnc2[nH]ccc12 :: 16
COc1ccc(Nc2nccc(N3CCC(NC(=O)c4cccc(NC(C)=O)c4)C3)n2)cc1 (stereo not drawn) [GSK1379732] :: 0
COc1ccc(-c2oc3ncnc(N)c3c2-c2ccc(OC)cc2)cc1 [SB-589132] :: 0

====

Recorded %Inh values for a group of compounds are listed next.
Tested on: RSK1(Kin.Dom.2-C-terminal)
Construct: gene RPS6KA1
Conditions: concentration: 1 μM, replicates: in singlicate; n = 1
readout_kind: %Inh (%)

O=C(CCO)NCCn1ccc2ncnc(Nc3ccc(Oc4cccc(C(F)(F)F)c4)c(Cl)c3)c21 :: 0
Fc1ccc(-c2ncn(CCCNCc3ccccc3)c2-c2ccncc2)cc1 :: 22
CCc1nc(-c2cccc(N(C)S(=O)(=O)c3ccccc3)c2)c(-c2ccnc(Nc3ccc(N4CCN(C(C)=O)CC4)nc3)n2)s1 :: 24
Cl.Cn1ccc(-c2cccc(Nc3ccnc4cc(-c5nccs5)ccc34)c2)n1 :: 0
COc1ccc(NC(=O)c2ccc(-c3cc(-c4nnc(C)o4)ccc3C)cc2)cc1 :: 0
Clc1cccc(-c2nc(Nc3ccncc3)c3ccccc3n2)c1 :: 10
O=C(Nc1n[nH]c2nc(-c3ccco3)c(Br)cc12)c1ccc(CN2CCCC2)cc1.O=C(O)[C@H](O)[C@@H](O)C(=O)O :: 0
O=C(NCCCN1CCCC1=O)c1cnc(NCc2cc(Cl)ccc2Cl)nc1NC1CCNCC1 :: 5

====

Tested on: NEK10
Conditions: concentration: 1 μM, replicates: in singlicate; n = 1
readout_kind: %Inh (%)

O=C(Nc1n[nH]c2nc(-c3ccco3)c(Br)cc12)c1ccc(CN2CCCC2)cc1.O=C(O)[C@H](O)[C@@H](O)C(=O)O [SB-742352] :: 0
Cl.c1ccc(Cn2ncc3cc(Nc4ncnc5ccccc45)ccc32)cc1 [GW273749] :: 0
CCc1nc(-c2cccc(N(C)S(=O)(=O)c3ccccc3)c2)c(-c2ccnc(Nc3ccc(N4CCN(C(C)=O)CC4)nc3)n2)s1 [GSK1645895] :: 0
Nc1nccc2scc(-c3ccc4c(c3)CCN4C(=O)Cc3cc(F)ccc3F)c12 [GSK2587663] :: 12
Nc1nc(-c2ccccn2)c(-c2ccnc3ccccc23)s1 [GW548057] :: 11
CSc1ccc(NC2=C(c3ccccc3Cl)C(=O)NC2=O)cc1 [SB-342411] :: 29
COc1ccc(-c2oc3ncnc(N)c3c2-c2ccc(OC)cc2)cc1 [SB-589132] :: 49
COC(=O)c1cccc(NC(=O)NCCNc2ccnc(Nc3ccc(F)cc3)n2)c1 [GSK1379883] :: 8
N#Cc1ccc(Oc2ccc(Nc3ncnc4cc[nH]c34)cc2Cl)cc1 :: 3
Fc1ccc(Nc2nccc(-c3c(-c4ccc(Cl)cc4)nn4ncccc34)n2)cc1F [GW829058] :: 19
COc1cc2c(Nc3cccc(NC(=O)c4ccccc4)c3)ncnc2cc1OCCCN1CCOCC1 [GSK223810] :: 0
CC(C)(C)OC(=O)NC1CCCN(c2cc(-c3ccc4c(N)n[nH]c4c3)nc(N)n2)C1 (stereo not drawn) [GSK2286096] :: 0
Nc1nc(-c2ccc3c(N)n[nH]c3c2)cc(N2CCCCC2)n1 [GSK2228768] :: 0
Fc1cccc(COc2ccc(Nc3ncnc4cc[nH]c34)cc2Cl)c1 :: 0
CCC(CC)(CC)n1cnc2c(N)ncnc21 [SKF-97620] :: 65
Cc1cc(N2CCC(NS(=O)(=O)c3ccc(F)cc3)CC2)nc(Nc2cccc(C#N)c2)n1.O=C(O)C(F)(F)F [GSK1653537] :: 1
Cl.Cn1ccc(-c2cccc(Nc3ccnc4cc(-c5nccs5)ccc34)c2)n1 [GW525701] :: 4
Cc1ccc(C)c(NC(=O)NCCNc2ccnc(Nc3ccc(F)cc3)n2)c1 [GSK1379878] :: 11

Where these numbers come from: paper PMC5540273
